Listing: Sodium (urinary excretion) of selected compounds
test system: spontaneously hypertensive rats (SHR); test: Diuretic activity in spontaneously hypertensive rats; type: in vivo, male spontaneously hypertensive rats (Okamoto strain); conditions: 100 mg/kg by gavage with 0.9% sodium chloride loading 25 ml/kg; 0-5 hour urine
Counter-ions that a name gives are not always drawn.
Dear colleague, please return just the value in mEQ/5 Hours, with no unit written.

Sample answers from the record:
> print(dat)
                                   compound  recorded.value
1  CCC1(OC(=O)N=P(c2ccccc2)(c2ccccc2)c2ccccc2)CCCC1            1.34
2  C#CCOC(=O)N=P(c1ccccc1)(c1ccccc1)c1ccccc1            1.76
3  N=P(c1ccccc1)(c1ccccc1)c1ccccc1 [Triphenylphosphinimide sulfate]            1.25

Answer with the recorded Sodium (urinary excretion) for the compound listed here: CCCOC(=O)N=P(c1ccccc1)(c1ccccc1)c1ccccc1 1.37

Answer with the recorded Sodium (urinary excretion) for the compound listed here: CCOC(=O)N=P(c1ccccc1)(c1ccccc1)c1ccccc1C 2.68

Answer with the recorded Sodium (urinary excretion) for the compound listed here: COC(=O)N=P(c1ccccc1)(c1ccccc1)c1ccccc1Cl 2.30

Answer with the recorded Sodium (urinary excretion) for the compound listed here: O=C(N=P(c1ccccc1)(c1ccccc1)c1ccccc1)OC1CCc2ccccc21 (stereo not shown) 1.41

Answer with the recorded Sodium (urinary excretion) for the compound listed here: CCOC(=O)N=P(c1ccccc1)(c1ccccc1)c1cccc(Cl)c1 2.32

Answer with the recorded Sodium (urinary excretion) for the compound listed here: COC(=O)N=P(c1ccccc1)(c1ccccc1C)c1ccccc1C 1.45

Answer with the recorded Sodium (urinary excretion) for the compound listed here: CCOC(=O)N=P(c1ccccc1)(c1cccc(Cl)c1)c1cccc(Cl)c1 1.84

Answer with the recorded Sodium (urinary excretion) for the compound listed here: Cc1ccccc1P(=N)(c1ccccc1)c1ccccc1 1.88

----------
test system: spontaneously hypertensive rats (SHR); assay: Diuretic activity in spontaneously hypertensive rats; type: in vivo, male spontaneously hypertensive rats (Okamoto strain); conditions: 100 mg/kg by gavage with 0.9% sodium chloride loading 25 ml/kg; 0-5 hour urine
Listing: Sodium (urinary excretion) of selected compounds
Put your answer as a value accompanied by its unit after it.

Sample answers from the record:
> print(dat)
                                   compound    recorded.value
1  CCOC(=O)N=P(c1ccccc1)(c1ccccc1)c1ccccc1CC  2.07 mEQ/5 Hours
2  O=C(N=P(c1ccccc1)(c1ccccc1)c1ccccc1)OC1CCOCC1  1.60 mEQ/5 Hours
3  CCCC1(OC(=O)N=P(c2ccccc2)(c2ccccc2)c2ccccc2)CCCC1  1.14 mEQ/5 Hours
4  Cc1ccccc1P(=NC(=O)OCC1CC1)(c1ccccc1)c1ccccc1  1.33 mEQ/5 Hours
5  O=C(N=P(c1ccccc1)(c1ccccc1)c1ccccc1)OC1CCCC1  1.48 mEQ/5 Hours

Answer with the recorded Sodium (urinary excretion) for the compound listed here: CCOC(=O)N=P(c1ccccc1)(c1ccccc1)c1cccc(F)c1 2.44 mEQ/5 Hours

Answer with the recorded Sodium (urinary excretion) for the compound listed here: CO[C@@H]1CCCC[C@H]1OC(=O)N=P(c1ccccc1)(c1ccccc1)c1ccccc1 (relative stereo) 1.45 mEQ/5 Hours

----------
system: spontaneously hypertensive rats (SHR); experiment: Diuretic activity in spontaneously hypertensive rats; type: in vivo, male spontaneously hypertensive rats (Okamoto strain); settings: 100 mg/kg by gavage with 0.9% sodium chloride loading 25 ml/kg; 0-5 hour urine
VALUE KIND: Sodium (urinary excretion) (mEQ/5 Hours)
Dear colleague, please return just the value in mEQ/5 Hours, with no unit written.

> print(dat)
                                   compound                         assayed.system  recorded.value
1  COC(=O)N=P(c1ccccc1)(c1ccccc1)c1c(C)cccc1C  spontaneously hypertensive rats (SHR)            1.33

Answer with the recorded Sodium (urinary excretion) for the compound listed here: CC1(OC(=O)N=P(c2ccccc2)(c2ccccc2)c2ccccc2)CCCC1 1.49

Answer with the recorded Sodium (urinary excretion) for the compound listed here: Cc1ccccc1P(=NC(=O)OC1CCCC1)(c1ccccc1)c1ccccc1 1.18

Answer with the recorded Sodium (urinary excretion) for the compound listed here: COC(=O)N=P(c1ccccc1)(c1ccccc1)c1ccccc1 2.53

Answer with the recorded Sodium (urinary excretion) for the compound listed here: CCOC(=O)N=P(c1ccccc1)(c1ccccc1)c1cccc(Cl)c1Cl 1.83

Answer with the recorded Sodium (urinary excretion) for the compound listed here: CC(OC(=O)N=P(c1ccccc1)(c1ccccc1)c1ccccc1)C1CC1 (centres unmarked) 1.19

Answer with the recorded Sodium (urinary excretion) for the compound listed here: COC1CCCCC1OC(=O)N=P(c1ccccc1)(c1ccccc1)c1ccccc1 (centres unmarked) 1.15

Answer with the recorded Sodium (urinary excretion) for the compound listed here: CCOC(=O)N=P(c1ccccc1)(c1ccccc1)c1ccccc1C(F)(F)F 2.12

Answer with the recorded Sodium (urinary excretion) for the compound listed here: CCc1ccccc1P(=NC(=O)OC)(c1ccccc1)c1ccccc1 1.36

Answer with the recorded Sodium (urinary excretion) for the compound listed here: O=C(N=P(c1ccccc1)(c1ccccc1)c1ccccc1C(F)(F)F)OC1CCOC1 (centres unmarked) 1.64

Answer with the recorded Sodium (urinary excretion) for the compound listed here: O=C(N=P(c1ccccc1)(c1ccccc1)c1ccccc1)OC1C=CCC1 (centres unmarked) 1.58
